Numbers sourced from paper PMC11678237.

In this section, each of the molecules is paired with its reported ΔTm3→2.
system: poly(dA)•2poly(dT) (DNA, polymer) A/T; experiment: UV melting, 260 nm; details: 150 mM KCl; 10 mM sodium cacodylate, pH 7.0; 10 μM compound, 15 μM base triplet; per base
READOUT_NAME: ΔTm3→2 (°C)

COMPOUND_STRUCTURE: O=c1cc(-c2ccccc2)oc2cccc(OCCCN3CCOCC3)c12
OBSERVED: 26.7
//
COMPOUND_STRUCTURE: CCCN(CCC)CCCOc1cccc2oc(-c3ccccc3)cc(=O)c12
OBSERVED: 23.8
//
COMPOUND_STRUCTURE: O=c1cc(-c2ccccc2)oc2cccc(OCCCCN3CCCCC3)c12
OBSERVED: 12.1
